Details: 298.15 K; 101 kPa; Liquid; Stabinger Viscometer
property-name: viscosity (mPa·s)

compound: CCn1cc[n+](C)c1.C[C@H](N)C(=O)[O-] [1-ethyl-3-methylimidazolium L-alaninate]
property-name: viscosity
assay-result: 263.98

compound: CCn1cc[n+](C)c1.O=C([O-])[C@@H]1CCCN1 [1-ethyl-3-methyl-1H-imidazolium L-prolinate]
property-name: viscosity
assay-result: 1194.6

compound: CCn1cc[n+](C)c1.NCCS(=O)(=O)[O-] [1-ethyl-3-methylimidazolium taurinate]
property-name: viscosity
assay-result: 514.67

compound: CC[n+]1ccn(C)c1.N[C@@H](CO)C(=O)[O-] [3-ethyl-1-methyl-1H-imidazolium L-serinate]
property-name: viscosity
assay-result: 2235.5
